test: Pharmacokinetic study in mice; format: in vivo, mouse; details: mouse, po; Plasma, 10 mg/kg
Reported Property: AUC(0-inf) (ng·h/mL)
# unit: ng·h/mL | format: bare number

I'd like to know its AUC(0-inf). The compound in question is CNc1nc(Nc2ccc(C(=O)N3CCOCC3)cc2OC)nc2[nH]cc(Cl)c12 [Compound 18]
3870

---

test: Pharmacokinetic study in mice; format: in vivo, mouse; settings: mouse, iv; Brain, i.v., 2 mg/kg; read-out: Vss
Reported Property: Vd (L/kg)
# unit: L/kg | format: bare number

I'd like to know its Vd. The molecule in question is CNc1nc(Nc2ccc(C(=O)N3CCOCC3)cc2OC)nc2[nH]cc(Cl)c12 [Compound 18]
1.7
